Exercise: for every item that follows, state its recorded % inhibition at 5.0E−09M.
molecular target: human phosphodiesterase-5 (PDE5 enzyme isolated from human platelets) (Homo sapiens (Human)); assay: PDE5 assay: formation of 5′GMP from cGMP (SPA); conditions: 5.0E−09M; percent inhibition of the control enzyme activity
Express your answer as a number followed by its unit.

Study these solved cases before continuing.
* CCCc1c(/C=N/O)c(C)c2c(=O)[nH]c(-c3cc(S(=O)(=O)N4CCN(CCCO)CC4)ccc3OCC)nn12 | 84.9%
* CCCc1c(CO)c(C)c2c(=O)[nH]c(-c3cc(S(=O)(=O)N4CCN(C)CC4)ccc3OCC)nn12 | 34.0%
* CCCOc1ccc(S(=O)(=O)N2CCN(CCO)CC2)cc1-c1nn2c(CCC)c(CO)c(C)c2c(=O)[nH]1 | 33.0%
* CCCc1c(/C=N/O)c(C)c2c(=O)[nH]c(-c3cc(S(=O)(=O)N4CCN(CCCO[N+](=O)[O-])CC4)ccc3OCC)nn12 | 70.6%
* CCCc1c(C(O)CC#N)c(C)c2c(=O)[nH]c(-c3cc(S(=O)(=O)N4CCN(C)CC4)ccc3OCC)nn12 (stereo not drawn) | 50.3%
* CCCc1cc(C)c2c(=O)[nH]c(-c3cc(S(=O)(=O)N4CCN(CCCO)CC4)ccc3OCC)nn12 | 69.2%
* CCCc1c(C(O)CC(=O)NO)c(C)c2c(=O)[nH]c(-c3cc(S(=O)(=O)N4CCN(C)CC4)ccc3OCC)nn12 (stereo not drawn) | 44.9%
* CCCc1c(/C=N/O)c(C)c2c(=O)[nH]c(-c3cc(S(=O)(=O)N4CCN(CCO[N+](=O)[O-])CC4)ccc3OCC)nn12 | 74.5%

Please find the next compound below.
# % inhibition at 5.0E−09M (compound: CCCc1c(/C=N/O)c(C)c2c(=O)[nH]c(-c3cc(S(=O)(=O)N4CCC(CCO)CC4)ccc3OCC)nn12 ) is 84.9%

====

system: phenylephrine-precontracted rat aortic rings; test: Isometric tension studies: relaxation of phenylephrine-precontracted rat aortic rings; conditions: Rattus norvegicus, Without Endothelium
Hi there, I'd appreciate the recorded EC50 for every entry that follows.
Answers are plain numbers, in nM.

* CCCOc1ccc(S(=O)(=O)N2CCC(CCO[N+](=O)[O-])CC2)cc1-c1nn2c(CCC)c(/C=N/O)c(C)c2c(=O)[nH]1 [Compound 1v] | 0.218

# ---- query compound ----
Reported EC50 for CCCc1nn(C)c2c(=O)[nH]c(-c3cc(S(=O)(=O)N4CCN(C)CC4)ccc3OCC)nc12 [sildenafil, reference compound] was 20.6

====

system: phenylephrine-precontracted rat aortic rings; assay: Isometric tension studies: relaxation of phenylephrine-precontracted rat aortic rings; details: Rattus norvegicus, Intact Endothelium (E+)
measured_attribute: pEC50
Numbers only, as −log10 of the molar value.

- CCCc1nn(C)c2c(=O)[nH]c(-c3cc(S(=O)(=O)N4CCN(C)CC4)ccc3OCC)nc12 [sildenafil, reference compound]: 9.73

Turning now to a further record.
# pEC50 measured on phenylephrine-precontracted rat aortic rings for item CCCOc1ccc(S(=O)(=O)N2CCC(CCO[N+](=O)[O-])CC2)cc1-c1nn2c(CCC)c(/C=N/O)c(C)c2c(=O)[nH]1 = 10.95

====

system: phenylephrine-precontracted rat aortic rings; assay: Isometric tension studies: relaxation of phenylephrine-precontracted rat aortic rings; details: Without Endothelium
measured_attribute: EC50 (nM)
One number for each entry, in nM.

# EC50 of CCCOc1ccc(S(=O)(=O)N2CCC(CCO)CC2)cc1-c1nn2c(CCC)c(/C=N/O)c(C)c2c(=O)[nH]1 = 5.94
